Assay Info: osmotic lysis modulators in infected erythrocytes, primary screen, PSAC antagonist project, cell-based, P. falciparum Indochina, OD700, 3 h (AID 1156)
Applied Conditions: higher = more signal, called active from +8 up or from −8 down

Compound: CO[C@H]1COC(=O)CC=C[C@H](C)[C@@H](OC)COC(=O)[C@H](C)COC(=O)CC=C[C@@H]1C
z-score: 0.523

Compound: COC(=O)CC=C[C@@H](C)[C@@H](C=NOC(C)CN1CCCc2nc(C)c(C)cc21)OC (some centres not stated)
z-score: -0.17

Compound: CCOC(=O)NN=C1C[C@@H](O)[C@@H](O)[C@@H]2[C@@H]3C(=O)N(c4ccc(F)cc4F)C(=O)[C@@H]3CC[C@@H]12
z-score: 0.171

Compound: O=C(NN=C1C[C@@H](O)[C@@H](O)[C@@H]2[C@@H]3C(=O)N(Cc4ccccc4)C(=O)[C@@H]3CC[C@@H]12)OCc1ccccc1
z-score: 0.458

Compound: CCOC(=O)[C@H](CC(C)C)NC(=O)CCC1CC(OC(=O)NCCc2ccc(F)cc2)CC2(CCCC(COC(=O)NCCOc3ccccc3)O2)O1 (some centres not stated)
z-score: 0.881

Compound: C[C@@H](ON=C1[C@H]2CCn3c(=O)n(-c4ccccc4)c(=O)n3[C@H]2[C@H](O)[C@@H]2O[C@H]12)c1cn([C@@H]2COC[C@H]2O)nn1
z-score: 0.0251

Compound: COC(=O)[C@@H]1CC[C@@H](C)[C@H](c2ccc(Br)cc2)N1
z-score: -0.242
